These entries and their values trace back to PubChem BioAssay (NCI).

test system: KM12 colon; experiment: NCI-60 one-dose screen, 48 h (100 = growth as untreated, 0 = no growth, -100 = all killed); conditions: 10 µM
This is part of a sample that, as a whole, favours compounds with a hit. Of some 83,000 tested, about 20% had one in any assay.
readout type: growth (%)
Supply the numeric figure in %, leaving out any unit text.

Below are worked cases with known answers.
COC(=O)CC[C@@H](C)[C@H]1CC[C@H]2[C@@H]3CC[C@@H]4C[C@H](O)CC[C@]4(C)[C@H]3C[C@H](O)[C@]12C	102
CCN1CC(CCN2CCOCC2)C(C(c2ccccc2)c2ccccc2)C1=O (stereo not given)	117
C[C@]12CCC3c4ccc(O)cc4C[C@@H](CCCCCCCCCS(=O)CCCC(F)(F)C(F)(F)F)C3C1CC[C@@H]2O (stereo not given in full)	80.4
CC(=O)OC/C=C(/C)C[P+](c1ccccc1)(c1ccccc1)c1ccccc1	33.3
CCOC(=O)c1cc(C(=O)c2ccc(F)cc2F)n2ccccc12	96.1

Any idea what growth was measured for Cc1c(C(N)=O)sc2c1c(=O)n(Cc1ccccc1)c1nnc(-c3ccc(Br)cc3)n21 ? 25.6

Any idea what growth was measured for O=S(=O)(Oc1ccc(-c2ccc3sccc3c2)cc1)c1ccc(F)cc1 ? 104

Any idea what growth was measured for COc1ccccc1N1CCCSC1=Nc1ccccc1 ? 91.7

Any idea what growth was measured for COc1cc(/C=C2\CCCC3=C2NC(N)=NC3c2cc(OC)c(OC)c(OC)c2)cc(OC)c1OC (stereo not given) ? -75.8

Any idea what growth was measured for COc1cccc(CNc2cccc3cn[nH]c23)c1O ? 99

###

Catalogue of growth readings, one per entry.
System: ACHN renal
Assay: NCI-60 one-dose screen, 48 h (100 = growth as untreated, 0 = no growth, -100 = all killed)
Conditions: 10 µM
Procedure: Growth inhibition of the ACHN human tumor cell line is measured as a screen for anti-cancer activity. Cells are grown in 96 well plates and exposed to the test compound for 48 hours. Compounds are tested at a single concentration, which is 10^-5 M for most compounds. The reported endpoint is percent growth (GI% or GIPRCNT), where numbers from 0 - 100% represent growth inhibition, and numbers from -100% - 0 represent cell death. For example, a value of 40 represents 60% growth inhibition. […]
The panel holds about 83,000 compounds, 20% with a hit somewhere; the sample as a whole holds those more often.
Supply the numeric figure in %, leaving out any unit text.

OCCn1cccn1	103
COc1ccc(/C=C2\CCCC3=C2NC(N)=NC3c2ccc(OC)cc2)cc1 (stereo not drawn)	98.3
COc1ccc(C(c2ccc(OCCN(C)C)cc2)c2cc3ccccc3c3ccccc23)cc1 (stereo not drawn)	21.6
C=C/C(C)=C/C[C@]1(C)[C@H](C)[C@@H](OC(=O)CCC)[C@H](O)[C@@]23C(=C[C@H](OC)C[C@@H]12)[C@@H](OC(=O)CCC)O[C@H]3OC(C)=O	-94.4
O=C1c2c(c(=O)[nH]c3ccccc23)CCN1Cc1ccccc1	91.8
CCCN(CCC)C(=O)[C@H](CC)[C@@H]1CC[C@@H](C)[C@@H]([C@H](C)[C@@H](O)[C@@H](C)C(=O)[C@H](CC)C2O[C@]3(C=C[C@@H](O)[C@]4(CC[C@@](C)([C@H]5CC[C@](O)(CC)[C@H](C)O5)O4)O3)[C@H](C)C[C@@H]2C)O1 (stereo partly drawn)	-2.43
COc1cc(C)ccc1Oc1nc(Nc2ccc(N3CCOCC3)cc2)ncc1NC(=O)Nc1cc(C(F)(F)F)cc(C(F)(F)F)c1	24.4

Any idea what growth was measured for c1ccc(CCCCc2ccc3ccccc3n2)cc1 ? 103
